# TARGET_SYSTEM: acetylcholine receptor (Homo sapiens, UniProt P02708)
# Sequence (P02708 21-457): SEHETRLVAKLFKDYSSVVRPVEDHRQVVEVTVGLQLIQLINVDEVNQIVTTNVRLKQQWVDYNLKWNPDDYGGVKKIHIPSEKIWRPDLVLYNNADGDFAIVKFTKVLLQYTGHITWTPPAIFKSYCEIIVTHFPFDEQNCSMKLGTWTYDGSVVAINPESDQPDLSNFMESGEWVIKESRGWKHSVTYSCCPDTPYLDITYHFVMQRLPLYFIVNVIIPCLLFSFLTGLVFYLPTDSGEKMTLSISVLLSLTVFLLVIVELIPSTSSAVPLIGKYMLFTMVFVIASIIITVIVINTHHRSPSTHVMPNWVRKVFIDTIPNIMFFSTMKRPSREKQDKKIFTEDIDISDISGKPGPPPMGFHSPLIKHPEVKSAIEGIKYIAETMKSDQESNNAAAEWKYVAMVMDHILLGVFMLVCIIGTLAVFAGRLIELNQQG
# ASSAY_PROTOCOL: SPR binding affinity (RU) of optimized 5mer/6mer/7mer peptides, Examples 6-7
# TEST_SETTINGS: SPR, Resonance Units; peptides tested at 10 μM; 6mer-2 Bottom sequence
# label = bin(measured Binding affinity), where bins are range A: < 20 Ru; range B: ≥ 20 Ru and < 30 Ru; range C: ≥ 30 Ru

              substance    class
 0  6mer-2-643 (KANPKK)  range A
 1  6mer-2-609 (RDSDRR)  range B
 2  6mer-2-737 (KDSVRR)  range A
 3  6mer-2-911 (KMSGKR)  range B
 4  6mer-2-677 (RENWKK)  range B
 5  6mer-2-967 (RTSNKK)  range C
 6  6mer-2-732 (KPTWRK)  range B
 7  6mer-2-655 (KIWFRR)  range C
 8  6mer-2-622 (RYTNKR)  range A
 9  6mer-2-755 (RYNDKK)  range A
10  6mer-2-863 (RKHWRR)  range A
11  6mer-2-621 (RHEPKR)  range C
12  6mer-2-848 (RMTERK)  range B
13  6mer-2-958 (KFKARK)  range B
14  6mer-2-856 (KEPMRR)  range A
15  6mer-2-810 (KHAKKK)  range A
16  6mer-2-612 (RDCVRK)  range A
17  6mer-2-726 (KHHKKK)  range B
18  6mer-2-914 (KDDIKK)  range B
19  6mer-2-942 (KTDKRK)  range B
20  6mer-2-909 (RCNPRR)  range C
21  6mer-2-727 (RDMIKR)  range A

----------
# TARGET_SYSTEM: acetylcholine receptor (Homo sapiens, UniProt P02708)
# ASSAY_PROTOCOL: SPR binding affinity (RU) of optimized 5mer/6mer/7mer peptides, Examples 6-7
# TEST_SETTINGS: SPR, Resonance Units; peptides tested at 10 μM; 6mer-2 Bottom sequence
// values below are reported Binding affinity
MEASURED_QUANTITY: Binding affinity

>>> print(df.to_string())
              substance  measured_quantity  result_value
 0  6mer-2-685 (KFHNRK)   Binding affinity         15 Ru
 1  6mer-2-804 (RNCGKR)   Binding affinity         21 Ru
 2  6mer-2-805 (RDTMKK)   Binding affinity         12 Ru
 3  6mer-2-853 (KHTGRR)   Binding affinity         29 Ru
 4  6mer-2-749 (KMWKRK)   Binding affinity         20 Ru
 5  6mer-2-730 (RNTHKR)   Binding affinity         26 Ru
 6  6mer-2-674 (KKWERK)   Binding affinity         26 Ru
 7  6mer-2-888 (RIAKRK)   Binding affinity         17 Ru
 8  6mer-2-631 (KYCMKR)   Binding affinity         16 Ru
 9  6mer-2-795 (RTHNKR)   Binding affinity         16 Ru
10  6mer-2-725 (KAHMKK)   Binding affinity         25 Ru
11  6mer-2-968 (RHWEKK)   Binding affinity         39 Ru
12  6mer-2-993 (RHDVKK)   Binding affinity         29 Ru
13  6mer-2-744 (KDHPRK)   Binding affinity         19 Ru
